The measured values listed here are drawn from ChEMBL document CHEMBL1201862.

# Lookup of reported GI50 keyed by entry
Tested on: MCF7
test name: NCI tumour cell line growth inhibition, 48 h
Active and inactive are the calls of the source. No stated cut-off is given here; in the data, active = GI50 up to about 1.1 µM and inactive = higher.

Example entries and their recorded answers appear below.
>>> endpoint_result("CCOP(=O)(CC1CC(O)(CNc2cc(Cl)nc(N)n2)C1)OCC (configuration not stated)")
"> 100 µM (inactive)"
>>> endpoint_result("Clc1cc(OCc2nn3c(Cc4ccccc4)nnc3s2)c(Cl)cc1OCc1nn2c(Cc3ccccc3)nnc2s1")
"> 100 µM (inactive)"
>>> endpoint_result("COc1ccc2c(C)cc(=O)oc2c1OC")
"> 100 µM (inactive)"
>>> endpoint_result("Oc1ccc2c(c1)OCC1c3ccccc3OC21 (configuration not stated)")
"86.5 µM (inactive)"
>>> endpoint_result("N=C(N)N/N=C/c1c(-c2ccc(N)cc2)nc2sccn12")
"31.6 µM (inactive)"

In: Can you look up the measured GI50 of CN(C)/C=N/C1CCC(C(C)(C)C)CC1 (configuration not stated) for me?
Out: 27.9 µM (inactive)

In: Can you look up the measured GI50 of COc1cc(C2S/C(=C/c3ccccc3)C(=O)N2c2cc(Cl)c(Cl)cc2Cl)cc(OC)c1OC (configuration not stated) for me?
Out: 30.4 µM (inactive)

In: Can you look up the measured GI50 of Brc1ccc2[nH]cc([C@@H]3CN[C@@H](c4c[nH]c5ccc(Br)cc45)CN3)c2c1 for me?
Out: 3.66 µM (inactive)

In: Can you look up the measured GI50 of COc1cccc(-c2nc(-c3cnccn3)n(C/C=C/c3ccccc3)n2)c1 for me?
Out: > 10 µM (inactive)

In: Can you look up the measured GI50 of CN(C)CCNc1ccc2ncn3c4ccc(O)cc4c(=O)c1c23 for me?
Out: 0.0832 µM (active)

In: Can you look up the measured GI50 of COc1cc(C(=O)OCCn2[nH]c(-c3ccc(Cl)cc3)nc2=S)cc(OC)c1OC for me?
Out: > 100 µM (inactive)

In: Can you look up the measured GI50 of O=S1(=O)OCCOS(=O)(=O)C1Cc1cccc2ccccc12 for me?
Out: 14.4 µM (inactive)

In: Can you look up the measured GI50 of N=C(N)NCCNC(=N)N for me?
Out: > 100 µM (inactive)

In: Can you look up the measured GI50 of CC(C)(Cl)C(Cl)CC/C(CBr)=C(\Cl)CCl (configuration not stated) for me?
Out: 11 µM (inactive)

In: Can you look up the measured GI50 of CC1(C)OCC2OC(n3cnc4c(N)nc(Cl)nc43)C(OS(C)(=O)=O)C2O1 (configuration not stated) for me?
Out: > 100 µM (inactive)

In: Can you look up the measured GI50 of ClC1=C(Cl)C2OC3C=CCC3OC2C(Cl)=C1Cl (configuration not stated) for me?
Out: 0.429 µM (active)

In: Can you look up the measured GI50 of CN(C)CCn1c(=O)c2ccc(NCCNCCO)c3c(=O)c4ccccc4n(c1=O)c23 for me?
Out: < 0.01 µM (active)

In: Can you look up the measured GI50 of Cc1c2c(n(C)c1C)C(=O)C1C(C2=O)C2(C)c3ccccc3C1(C)c1ccccc12 (configuration not stated) for me?
Out: > 100 µM (inactive)

In: Can you look up the measured GI50 of CCOC1CN(C)/C(=N\c2cccc3ccccc23)S1 (configuration not stated) for me?
Out: > 10 µM (inactive)

In: Can you look up the measured GI50 of CCOC(=O)CCCNC(=O)CCCCC(=O)N(C)C for me?
Out: > 100 µM (inactive)

In: Can you look up the measured GI50 of COc1cccc(-c2nc(-c3cnccn3)n(C3OC(CO)C(O)C3O)n2)c1 (configuration not stated) for me?
Out: > 100 µM (inactive)

In: Can you look up the measured GI50 of CCN(CC)Cc1cc(/N=N\c2c(O)ccc3c(/N=N\c4ccc(O)c(CN(CC)CC)c4)c(O)ccc23)ccc1O for me?
Out: 2.39 µM (inactive)

====

Tested on: CCRF-CEM
test name: NCI tumour cell line growth inhibition, 48 h
Activity calls are given as the source filed them. Rule as the data show it: active = GI50 up to about 1.1 µM and inactive = higher.
Pick one and only one: 1 (yes) (active), 0 (no) (inactive)

Recorded results for 6 molecules are shown here.
>>> group_label("O=C(O)c1ccc(/C=N/N=C2c3ccccc3-c3ccccc32)cc1")
"0 (no)"
>>> group_label("CCCCCCCCCC1CC(=O)OC2=C1C(=O)CCC2 (centres undefined)")
"0 (no)"
>>> group_label("CCN(CC)C(=S)N/N=C(/c1ccccc1)c1ccccn1")
"1 (yes)"
>>> group_label("COc1c2cc(C(C)(C)C)cc1CSCc1cc(C(C)(C)C)cc(c1OC)CCCCC2")
"0 (no)"
>>> group_label("OC1(c2ccc(-c3ccccc3)cc2)c2ccccc2C2=NCCN21 (centres undefined)")
"0 (no)"
>>> group_label("CCOC(=O)c1ccc(/C(C)=N/NC(N)=S)cc1")
"0 (no)"

In: Test call for this molecule, please: Cc1cc(=O)oc2c(CN(CCCl)CCCl)c(O)ccc12
Out: 0 (no)

In: Test call for this molecule, please: CC1S/C(=N/c2nnc(-c3ccccc3)o2)NC1=O (centres undefined)
Out: 0 (no)

In: Test call for this molecule, please: COc1ccc2c(c1)OC[C@@H]1c3cc4c(cc3O[C@H]21)OCO4
Out: 0 (no)

====

Tested on: U-251
test name: NCI tumour cell line growth inhibition, 48 h
Calls of active or inactive are those of the source. Rule as the data show it: active = GI50 up to about 1.1 µM and inactive = higher.
Pick one and only one: Y for active, N for inactive

>>> group_label("CCOC(=O)c1ccc(/C(C)=N/NC(N)=S)cc1")
"N"

In: Test call for this molecule, please: NC1=C(Cl)C(=O)c2c(O)ccc(O)c2C1=O
Out: N

In: Test call for this molecule, please: CC(=O)Nc1ccc(S(=O)(=O)N/N=C/c2cc(I)cc([N+](=O)[O-])c2O)cc1
Out: N

In: Test call for this molecule, please: Cc1ccc(NC(=O)c2cccc(OP(=O)(O)Nc3ccc(C)cc3)c2)cc1
Out: N

In: Test call for this molecule, please: COC(=O)c1cnn2c1n[n+]([O-])c1ccccc12
Out: N

In: Test call for this molecule, please: O=C1C[C@@H](c2ccc(O)cc2)[C@@]2(O1)C(=O)O[C@H]([C@@H](O)CO)[C@@H]2O
Out: N

====

# Lookup of reported GI50 keyed by entry
Tested on: 786-0
test name: NCI tumour cell line growth inhibition, 48 h
The source made the active and inactive calls. Rule as the data show it: active = GI50 up to about 1.1 µM and inactive = higher.

Example entries and their recorded answers appear below.
>>> endpoint_result("CCOC(=O)[C@@]12C(C)=CC(=O)O[C@]1(C)C1C(=O)NC(=O)C12 (stereo not given in full)")
"> 100 µM (inactive)"
>>> endpoint_result("COc1cccc(-c2nc(-c3cnccn3)n(C/C=C/c3ccccc3)n2)c1")
"> 10 µM (inactive)"
>>> endpoint_result("NNC(=O)CCCCCCCC(=O)O")
"> 100 µM (inactive)"
>>> endpoint_result("COc1cc(C2S/C(=C/c3ccccc3)C(=O)N2c2cc(Cl)c(Cl)cc2Cl)cc(OC)c1OC (stereo not given)")
"38.3 µM (inactive)"
>>> endpoint_result("O=c1oc2c3ccc4ccccc4c3n(Cc3nc4ccccc4[nH]3)c2c2ccccc12")
"7.16 µM (inactive)"
>>> endpoint_result("Cc1cc(Cl)ccc1C1OC(=O)c2c1ccc1ccccc21 (stereo not given)")
"97.5 µM (inactive)"
>>> endpoint_result("CCN(CC)Cc1c(/C=C\\c2cc(OC)c(OC)c(OC)c2)ccc(OC)c1O")
"3.83 µM (inactive)"
>>> endpoint_result("CCOC(=O)C(C)Sc1nnc(COc2ccc(Cl)cc2)n1-c1ccccc1 (stereo not given)")
"29.6 µM (inactive)"
>>> endpoint_result("CC1CCCC2(CC[N+](C)(CCC[N+](C)(C)C)CC2)C1 (stereo not given)")
"> 100 µM (inactive)"

Alright, here's another molecule for you.
In: Can you look up the measured GI50 of c1ccc(P(=C2c3ccccc3-c3ccccc32)(c2ccccc2)c2ccccc2)cc1 for me?
Out: 4.68 µM (inactive)

====

Test system: M14
test name: NCI tumour cell line growth inhibition, 48 h
Active and inactive are the calls of the source. Cut-off read from the data, not from the text of the source: active = GI50 up to about 1.1 µM and inactive = higher.
Pick one and only one: t for active, f for inactive

Recorded results for 3 molecules are shown here.
>>> group_label("N#C/C(=C1\\OC(=O)C(c2ccc(Br)cc2)=C1O)c1ccc(Br)cc1")
"f"
>>> group_label("CCc1cccc(C(C)C)c1NC(=O)/C(=N\\NC(N)=O)C(C(=O)OC)c1cnc2ccccc2n1 (centres undefined)")
"f"
>>> group_label("O=S1(=O)OCCOS(=O)(=O)C1Cc1cccc2ccccc12")
"f"

Next molecule, please.
In: Test call for this molecule, please: N=C(N)N/N=C/c1c(-c2ccc(N)cc2)nc2sccn12
Out: f
